molecular target: Gonadotropin-releasing hormone receptor (Homo sapiens); assay: Displacement of [125I]-(D-Trp6)-GnRH from human GnRH receptor at 50 nM
readout-type: Activity (%)

1 = CCc1nc(C)sc1CN1CCN(c2cccc3[nH]c(-c4ccc(C(C)(C)C)cc4)nc23)CC1
2 = CC(C)(C)c1ccc(-c2nc3c(N4CCN(Cc5ncc[nH]5)CC4)cccc3[nH]2)cc1
Q) // returns 1 or 2 , whichever has the lower Activity Label of pick, please.
A) 1
(1: 26%, 2: 40%)

A = CC(C)(C)c1ccc(-c2nc3c(N4CCN(Cc5ccsc5)CC4)cccc3[nH]2)cc1
B = CC(C)(C)c1ccc(-c2nc3c(N4CCN(Cc5nccs5)CC4)cccc3[nH]2)cc1
Q) Pick the one with the larger Activity: A vs B Label of pick, please.
A) B

I = CC(C)(C)c1ccc(-c2nc3c(N4CCN(Cc5ccc[nH]5)CC4)cccc3[nH]2)cc1
II = CCCCc1nc(C)c(CN2CCN(c3cccc4[nH]c(-c5ccc(C(C)(C)C)cc5)nc34)CC2)s1
Q) // returns I or II , whichever has the lower Activity Label of pick, please.
A) II

1 = Cn1cccc1CN1CCN(c2cccc3[nH]c(-c4ccc(C(C)(C)C)cc4)nc23)CC1
2 = CCCCn1cnc(C)c1CN1CCN(c2cccc3[nH]c(-c4ccc(C(C)(C)C)cc4)nc23)CC1
3 = Cn1nccc1CN1CCN(c2cccc3[nH]c(-c4ccc(C(C)(C)C)cc4)nc23)CC1
Q) Arrange by Activity, high to low. Rank them, then answer with their labels in that order.
A) 2, 3, 1
